Quick list: protein stability index per entry.
B1: TRIB1 (parent)
chain: SYVRSRKRLREEEAARLFKQIVSA

- Variants of: B1
- protocol.summary: protein stability index of a GFP-peptide fusion (GPS, HEK-293T) (PSI 1-6); higher = more stable;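 further: lentivirally expressed fusions sorted by FACS into six bins by GFP to DsRed ratio, PSI derived from sequencing read proportions per bin multiplied by bin number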
- run.conditions: c terminus: a fixed tail appended
// no unit, no text: just the number

# variant.notation, protein stability index
measured = [
    ("R4N", 2.76),
    ("F18W", 2.56),
    ("Y2T", 2.38),
    ("V22M", 2.45),
]

For the next question, use this variant.
Exercise: Return reported protein stability index; argument: V22D
Key: 3.22
